Hey, just so you know, these numbers are from patent US9975896B2.

- targetDesc: BRD4 (Homo sapiens, UniProt O60885)
- experimentalProtocol: In vitro AlphaScreen protein binding assay (competition with biotinylated JQ1)
- recordedConditions: read-out: BRD4--IC50; Table 6; biochemical
measuredParameter: pIC50
Give only the number. pIC50 is defined as minus log10 of concentration in molar units.

Can you look up the measured pIC50 of Cc1noc(C)c1-c1ccc(-c2nc3cnccn3c2N[C@@H](C)c2ccccc2)cc1 [Compound 21a] for me?
5.54

Need pIC50 of Cc1noc(C)c1-c1ccc(-c2nc3ccc(Cl)cn3c2NC(C)(C)C)cc1 , thanks.
5.93

Suppose we examine the compound Cc1noc(C)c1-c1ccc(-c2nc3cnccn3c2NCc2ccccc2)cc1 ; what pIC50 value has been reported?
4.73

If you can, please state the reported pIC50 value of Cc1noc(C)c1-c1ccc(-c2nc3cnccn3c2NC(C)C)cc1 .
6.09

If you can, please state the reported pIC50 value of CCCCNc1c(-c2ccc(-c3c(C)noc3C)cc2)nc2cnccn12 [Compound 35a] .
5.78

Give its pIC50 value. Item: COc1ccc(Nc2c(-c3ccc(-c4c(C)noc4C)cc3)nc3ccccn23)cc1
5.56

Any idea what its pIC50 is? The compound is COc1ccc(Nc2c(-c3ccc(-c4c(C)noc4C)cc3)nc3ccc(Cl)cn23)cc1
4.50

What value of pIC50 has been recorded for this entry: Cc1noc(C)c1-c1ccc(-c2nc3c(C(F)(F)F)cccn3c2NC(C)(C)C)cc1 [Compound 28a]
4.92

Any idea what pIC50 was measured for Cc1ccc2nc(-c3ccc(-c4c(C)noc4C)cc3)c(NC(C)(C)C)n2c1 [Compound 27a] ?
5.50

GET /values?readout=pIC50&item= COc1ccc(Nc2c(-c3ccc(-c4c(C)noc4C)cc3)nc3cnccn23)cc1
5.10

Looking for the measured pIC50 of CCOC(=O)CNc1c(-c2ccc(-c3c(C)noc3C)cc2)nc2cnccn12 [Compound 23a] , can you help?
5.34

What measured pIC50 goes with COC(=O)c1ccc2nc(-c3ccc(-c4c(C)noc4C)cc3)c(NC(C)(C)C)n2c1 [Compound 29a] ?
5.79

Please report the recorded pIC50 for Cc1noc(C)c1-c1ccc(-c2nc3ccncn3c2NC(C)(C)C)cc1 .
4.68

Entry under review: COc1ccc(Nc2c(-c3ccc(-c4c(C)noc4C)cc3)nc3cc(OC)ncn23)cc1 . Reported pIC50?
5.54

For the compound Cc1noc(C)c1-c1ccc(-c2nc3ccccn3c2NC(C)(C)C)cc1 , what pIC50 is on record?
6.32

So what's the measured pIC50 for this one? Cc1noc(C)c1-c1ccc(-c2nc3ncccn3c2NC(C)(C)C)cc1 [Compound 33a]
6.07

Using the record for Cc1noc(C)c1-c1ccc(-c2nc3ccccn3c2NC2CCCCC2)cc1 , report its pIC50.
6.04

For Cc1noc(C)c1-c1ccc(-c2nc3ccccn3c2N)cc1 [Compound 12a] , what is its reported pIC50?
5.41

Entry under review: Cc1noc(C)c1-c1ccc(-c2nc3cnccn3c2NCC(=O)OC(C)(C)C)cc1 [Compound 24a] . Reported pIC50?
5.30

Record request: pIC50 value, item Cc1noc(C)c1-c1ccc(-c2nc3ccc(Cl)cn3c2NCc2ccccc2)cc1
4.93

What value of pIC50 has been reported for the following compound? Cc1noc(C)c1-c1ccc(-c2nc3ccc(C(=O)O)cn3c2NC(C)(C)C)cc1 [Compound 30a]
6.01
